- Test system: NCI-H226 cells
- assay-procedure: Viability assay in NCI-H226 (Yap-dependent) cells, CyQUANT
- Assay type: cell-based
- test-context: Homo sapiens, 96 hour incubation
Can you tell me IC50 for the items I'm about to list?

Known IC50 results, listed for orientation:
[[record]]
compound = "CNC(=O)c1ccc2c(c1)c1cc(C(F)(F)F)ccc1n2-c1ccc(C(F)(F)F)cc1 [Compound 30]"
measured = "1 to 10 µM"

[[record]]
compound = "O=C(O)c1ccc2c(c1)c1cc(Cc3ccccc3F)ccc1n2-c1ccc(C(F)(F)F)cc1 [Compound 3]"
measured = "1 to 10 µM"


Give IC50 for each of the items listed below.
1. O=C(O)c1ccc2c(c1)c1ccncc1n2-c1ccc(C(F)(F)F)cc1 [Compound 5]
2. Cc1ccc2c(c1)c1cc(C(=O)NCC(C)O)ccc1n2-c1ccc(C(F)(F)F)cc1 (centres unmarked) [Compound 40]
3. Cc1ccc2c(c1)c1cc(C(=O)NCC(C)(C)O)ccc1n2-c1ccc(C(F)(F)F)cc1 [Compound 43]
4. Cc1ccc2c(c1)c1cc(C(=O)NCc3ccccn3)ccc1n2-c1ccc(C(F)(F)F)cc1 [Compound 51]
5. CNC(=O)c1ccc2c(c1)c1nc(C)ccc1n2-c1ccc(C(F)(F)F)cc1 [Compound 22]
6. O=C(O)c1ccc2c(c1)c1cc(F)ccc1n2-c1ccc(C(F)(F)F)cc1 [Compound 11]
7. O=C(O)c1ccc2c(c1)c1cc(OC(F)(F)F)ccc1n2-c1ccc(C(F)(F)F)cc1 [Compound 15]
8. Cc1ccc2c(c1)c1cc(C(=O)NCC(O)CO)ccc1n2-c1ccc(C(F)(F)F)cc1 (centres unmarked) [Compound 55]

Response:
0.1 to 1 µM
0.001 to 0.1 µM
0.1 to 1 µM
0.1 to 1 µM
0.001 to 0.1 µM
0.1 to 1 µM
0.001 to 0.1 µM
0.001 to 0.1 µM

---

- Test system: NCI-H226 cells
- assay-procedure: Viability assay in NCI-H226 (Yap-dependent) cells, CyQUANT
- Type: cell-based
- test-context: Homo sapiens, 96 hour incubation
property-label: IC50

Known IC50 results, listed for orientation:
[[record]]
compound = "Cc1ccc2c(c1)c1cc(C(=O)NCc3nccn3C)ccc1n2-c1ccc(C(F)(F)F)cc1 [Compound 45]"
system_under_test = "NCI-H226 cells"
measured = "0.1 to 1 µM"

[[record]]
compound = "COCCC(CO)NC(=O)c1ccc2c(c1)c1cc(C)ccc1n2-c1ccc(C(F)(F)F)cc1 (stereo not shown) [Compound 61]"
system_under_test = "NCI-H226 cells"
measured = "0.1 to 1 µM"

[[record]]
compound = "O=C(O)c1ccc2c(c1)c1ccccc1n2-c1ccc(C(F)(F)F)cc1 [Compound 8]"
system_under_test = "NCI-H226 cells"
measured = "0.1 to 1 µM"


Shift focus to the following entry.
Prompt: # input compound: O=C(O)c1ccc2c(c1)c1cc(Cc3ccc(F)cc3)ccc1n2-c1ccc(C(F)(F)F)cc1 [Compound 4] ; wanted: its IC50
Response: > 10 µM

---

- Test system: NCI-H226 cells
- assay-procedure: Viability assay in NCI-H226 (Yap-dependent) cells, CyQUANT
- Type: cell-based
- test-context: Homo sapiens, 96 hour incubation
- Method: The ability of YAP-TEAD inhibitors to inhibit tumor cell growth was evaluated using two different cell lines: NCI-H226, which is a YAP dependent cell line, and SW620 cells, where YAP and TAZ were knocked out using CRISPR to generate a YAP independent cell line. […] The total cell count was determined, and 20 μl of the desired cell number was added to each well of a 384 well plate using a Multidrop Combi. […]
Can you tell me IC50 for the items I'm about to list?

[[record]]
compound = "O=C(O)c1ccc2c(c1)c1cc(Cc3cccc(F)c3)ccc1n2-c1ccc(C(F)(F)F)cc1"
measured = "0.1 to 1 µM"

[[record]]
compound = "CNC(=O)c1ccc2c(c1)c1cc(C)ccc1n2-c1ccc(C(F)(F)F)cc1"
measured = "0.001 to 0.1 µM"

[[record]]
compound = "Cc1cccc2c1c1cc(C(=O)O)ccc1n2-c1ccc(C(F)(F)F)cc1"
measured = "0.001 to 0.1 µM"


Give IC50 for each of the items listed below.
1. CCC(CO)NC(=O)c1ccc2c(c1)c1cc(C)ccc1n2-c1ccc(C(F)(F)F)cc1 (stereo not shown)
2. O=C(O)c1ccc2c(c1)c1cnccc1n2-c1ccc(C(F)(F)F)cc1
3. Cc1ccc2c(c1)c1cc(C(N)=O)ccc1n2-c1ccc(C(F)(F)F)cc1

Response:
1. 0.001 to 0.1 µM
2. > 10 µM
3. 0.1 to 1 µM

Prompt: # input compound: `Cc1ccc2c(c1)c1cc(C(=O)N[C@H]3COC[C@@H]3O)ccc1n2-c1ccc(C(F)(F)F)cc1` ; wanted: its IC50
Response: 0.1 to 1 µM
